tested.target: Cathepsin D (Homo sapiens, UniProt P07339)
Sequence (P07339 65-412, species assumed): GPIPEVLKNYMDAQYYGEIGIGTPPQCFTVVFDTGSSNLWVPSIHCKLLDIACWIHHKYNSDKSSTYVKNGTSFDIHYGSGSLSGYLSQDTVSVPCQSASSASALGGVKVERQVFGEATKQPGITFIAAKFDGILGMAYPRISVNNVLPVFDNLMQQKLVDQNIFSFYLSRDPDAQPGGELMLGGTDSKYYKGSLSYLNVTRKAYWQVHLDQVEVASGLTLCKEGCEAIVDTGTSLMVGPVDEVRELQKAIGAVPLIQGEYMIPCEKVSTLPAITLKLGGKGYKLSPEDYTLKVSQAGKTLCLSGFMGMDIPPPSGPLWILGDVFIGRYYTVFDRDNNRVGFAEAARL
Exercise: for every item that follows, state its recorded IC50.
Answers are plain numbers, in nM.

Below: 3 compounds and their reported IC50.
Input line: Missing value: IC50, Cathepsin D (Homo sapiens, UniProt P07339), entry `CC(C)C[C@H](NC(=O)[C@H](C)NC(=O)C[C@H](O)[C@H](CC(C)C)NC(=O)[C@@H](NC(=O)c1ccccc1)C(C)C)[C@@H](O)CC(=O)O` . Fill in?
Output line: 82.4

Input line: Check CC(C)CC(NC(=O)[C@H](C)NC(=O)CC(O)C(CC(C)C)NC(=O)[C@@H](NC(=O)COc1ccccc1)C(C)C)C(O)CC(=O)O (stereo partly shown) too.
Output line: 12.6

Input line: Check `CC(C)C[C@H](NC(=O)[C@H](C)NC(=O)C[C@H](O)[C@H](CC(C)C)NC(=O)[C@@H](N)C(C)C)[C@@H](O)CC(=O)O` too.
Output line: 12900

Continue with the next compound.
Input line: Missing value: IC50, Cathepsin D (Homo sapiens, UniProt P07339), entry `CC(C)CC(=O)N[C@H](C(=O)N[C@@H](CC(C)C)[C@@H](O)CC(=O)N[C@@H](C)C(=O)N[C@@H](CC(C)C)[C@@H](O)CC(=O)O)C(C)C` . Fill in?
Output line: 76.7
